SYSTEM_UNDER_TEST: T1, TNFR1 (Homo sapiens, UniProt P19438)
T1 chain: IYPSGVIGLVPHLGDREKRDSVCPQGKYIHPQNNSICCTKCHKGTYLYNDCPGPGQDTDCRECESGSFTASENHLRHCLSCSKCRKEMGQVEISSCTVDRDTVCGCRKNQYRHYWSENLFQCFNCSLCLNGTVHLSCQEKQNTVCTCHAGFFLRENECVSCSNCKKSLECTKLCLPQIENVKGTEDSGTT
TEST: yeast display SC50
MEASUREMENT_NAME: apparent Kd (screen) (nM)

(I) A35V (designed binder) SMEEEVEKAAKEYEKKKKEAIEKHLEKLKAKDKEVAERFLKELEEAAKEYAKDEAKTMSEEEAKRRAKKYKEKVLLSELSEEEQKEIKEAEEKLVRTILKYVEEAAK
(II) A9W (designed binder) SMEEEVEKWAKEYEKKKKEAIEKHLEKLKAKDKEAAERFLKELEEAAKEYAKDEAKTMSEEEAKRRAKKYKEKVLLSELSEEEQKEIKEAEEKLVRTILKYVEEAAK
Of the pair I and II , name the member with the lesser recorded apparent Kd (screen). Please identify the chosen entry by its label.
I
